tgt: UniProt:O14744
Sequence (O14744 whole entry): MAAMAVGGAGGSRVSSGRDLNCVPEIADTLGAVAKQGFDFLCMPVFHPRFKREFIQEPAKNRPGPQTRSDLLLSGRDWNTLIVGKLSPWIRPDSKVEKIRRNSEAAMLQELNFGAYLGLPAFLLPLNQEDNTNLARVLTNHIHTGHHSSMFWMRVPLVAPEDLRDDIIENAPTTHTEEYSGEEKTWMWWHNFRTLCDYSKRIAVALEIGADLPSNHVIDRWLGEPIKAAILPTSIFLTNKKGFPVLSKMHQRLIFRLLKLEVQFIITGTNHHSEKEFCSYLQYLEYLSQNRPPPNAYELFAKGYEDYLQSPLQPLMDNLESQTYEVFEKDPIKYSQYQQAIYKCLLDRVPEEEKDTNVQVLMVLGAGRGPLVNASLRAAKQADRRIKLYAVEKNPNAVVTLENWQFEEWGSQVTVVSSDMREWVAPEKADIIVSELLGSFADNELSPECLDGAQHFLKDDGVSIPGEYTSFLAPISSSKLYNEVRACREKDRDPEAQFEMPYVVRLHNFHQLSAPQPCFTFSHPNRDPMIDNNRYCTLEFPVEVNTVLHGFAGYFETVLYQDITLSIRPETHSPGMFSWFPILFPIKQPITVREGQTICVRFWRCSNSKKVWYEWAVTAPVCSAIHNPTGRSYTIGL
Sequence (Q9BQA1 whole entry partner): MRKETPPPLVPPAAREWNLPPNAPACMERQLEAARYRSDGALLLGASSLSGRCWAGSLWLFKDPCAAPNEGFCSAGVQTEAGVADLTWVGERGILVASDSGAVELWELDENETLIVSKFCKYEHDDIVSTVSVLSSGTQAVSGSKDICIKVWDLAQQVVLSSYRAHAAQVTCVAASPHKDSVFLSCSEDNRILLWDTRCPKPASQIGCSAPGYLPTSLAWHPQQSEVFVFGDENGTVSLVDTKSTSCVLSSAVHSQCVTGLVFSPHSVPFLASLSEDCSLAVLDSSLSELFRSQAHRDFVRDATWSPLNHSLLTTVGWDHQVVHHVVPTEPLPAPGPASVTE
method: Revised PRMT5 Biochemical Assay
measurement.conditions: 1 μM histone H4 derived peptide substrate, 1 μM S-Adenosyl methionine, 4 hours at 37 degree Celsius, Transcreener EPIGEN fluorescence polarisation
Recorded measurements of IC50, one per entry
Express your answer in µM, writing the number without its unit.

# lookup: IC50 of CC1(C)COCCN1C(=O)c1ccc(C(=O)NC[C@@H](O)CNC2Cc3ccccc3C2)cc1
0.482

# lookup: IC50 of O=C(NC[C@@H](O)CNC1Cc2ccccc2C1)c1ccc(C(=O)N2C3CCC2COC3)cc1
0.12

# lookup: IC50 of O=C(NC[C@@H](O)CNC1Cc2ccccc2C1)c1ccccc1Cl
4.59

# lookup: IC50 of CC(=O)N1CCc2cc(C(=O)NCC(O)CNC3Cc4ccccc4C3)ccc2C1 (racemic)
0.931
